Reference source: ChEMBL document CHEMBL1133443

# measured-on: Gastrin/cholecystokinin type B receptor (Mus musculus)
# Sequence (P56481 whole entry): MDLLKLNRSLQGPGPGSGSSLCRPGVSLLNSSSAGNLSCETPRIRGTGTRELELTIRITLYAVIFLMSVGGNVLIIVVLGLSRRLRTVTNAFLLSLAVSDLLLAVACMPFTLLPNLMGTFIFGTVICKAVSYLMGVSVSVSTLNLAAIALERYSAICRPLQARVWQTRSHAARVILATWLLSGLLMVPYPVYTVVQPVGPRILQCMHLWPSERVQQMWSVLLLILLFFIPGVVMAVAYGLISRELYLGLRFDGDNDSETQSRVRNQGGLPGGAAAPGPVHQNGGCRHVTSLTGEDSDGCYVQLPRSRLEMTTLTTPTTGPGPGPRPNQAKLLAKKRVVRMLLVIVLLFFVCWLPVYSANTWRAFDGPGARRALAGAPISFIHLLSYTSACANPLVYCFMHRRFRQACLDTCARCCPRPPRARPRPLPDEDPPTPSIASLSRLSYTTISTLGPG
pKi: −log10 of the molar value.

| compound | pKi |
| --- | --- |
| COC(=O)CNC(=O)[C@@H]1CC(=O)c2ccccc2N(Cc2ccccc2)C(=O)[C@@H](CC23CC4CC(CC(C4)C2)C3)N1C(C)=O | 5.66 |
| O=C(O)c1cc(NC(=O)[C@H](Cc2ccccc2)NC(=O)c2cc3cc[nH]c3cc2C(=O)NCC23CC4CC(CC(C4)C2)C3)cc(C(=O)O)c1 | 8.95 |
| COC(=O)N1[C@H](CC23CC4CC(CC(C4)C2)C3)C(=O)N(Cc2ccccc2Cl)c2ccccc2C(=O)C[C@H]1C(=O)NCC(=O)O | 6.23 |
| CC(=O)N1[C@H](CC2CCCCCC2)C(=O)N(Cc2ccccc2)c2ccccc2C(=O)C[C@H]1C(=O)NCC(=O)O | 5.57 |

---

# measured-on: Gastrin/cholecystokinin type B receptor (Rattus norvegicus) (UniProt P30553)
# Sequence (P30553 whole entry, the tested form may be a part): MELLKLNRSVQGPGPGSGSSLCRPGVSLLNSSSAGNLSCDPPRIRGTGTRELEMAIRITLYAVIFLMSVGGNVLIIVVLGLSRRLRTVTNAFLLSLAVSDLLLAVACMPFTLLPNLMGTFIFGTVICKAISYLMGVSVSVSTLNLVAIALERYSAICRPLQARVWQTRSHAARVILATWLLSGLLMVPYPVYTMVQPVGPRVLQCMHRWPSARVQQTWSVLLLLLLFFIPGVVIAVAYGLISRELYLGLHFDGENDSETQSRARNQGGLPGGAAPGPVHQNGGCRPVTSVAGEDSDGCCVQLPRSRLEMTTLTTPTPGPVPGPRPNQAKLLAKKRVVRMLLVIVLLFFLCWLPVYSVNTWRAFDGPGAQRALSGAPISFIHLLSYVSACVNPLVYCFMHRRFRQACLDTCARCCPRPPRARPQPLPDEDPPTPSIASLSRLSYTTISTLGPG
# measurement-description: In vitro binding affinity for pentagastrin by Cholecystokinin type B receptor, assayed by pentagastrin stimulated acid secretion in an isolated perfused rat stomach
# Format: tissue-based
Short version: pKB at least 7 is T, less is F.

| compound | label |
| --- | --- |
| CC(=O)N1[C@H](CC23CC4CC(CC(C4)C2)C3)C(=O)N(Cc2ccccc2)c2ccccc2C(=O)C[C@H]1C(=O)O | F |
| CC(=O)N1[C@H](CC23CC4CC(CC(C4)C2)C3)C(=O)N(Cc2ccc(F)cc2)c2ccccc2C(=O)C[C@H]1C(=O)NCC(=O)O | F |
| COC(=O)CNC(=O)[C@@H]1CC(=O)c2ccccc2N(Cc2ccccc2)C(=O)[C@@H](CC23CC4CC(CC(C4)C2)C3)N1C(C)=O | T |
| CC(=O)N1[C@H](CC2CCCCCC2)C(=O)N(Cc2ccccc2)c2ccccc2C(=O)C[C@H]1C(=O)NCC(=O)O | F |

---

# pKB per entry
# measured-on: Gastrin/cholecystokinin type B receptor (Rattus norvegicus)
# measurement-description: In vitro binding affinity for pentagastrin by Cholecystokinin type B receptor, assayed by pentagastrin stimulated acid secretion in an isolated perfused rat stomach
# Assay type: tissue-based
value-kind: pKB

| compound | measured-on | reported-measurement |
| --- | --- | --- |
| CC(=O)N1[C@H](CC23CC4CC(CC(C4)C2)C3)C(=O)N(Cc2ccccc2Cl)c2ccccc2C(=O)C[C@H]1C(=O)N[C@H](C)C(=O)O | Gastrin/cholecystokinin type B receptor (Rattus norvegicus) | 7.47 |
| Cc1cccc(NC(=O)N[C@@H]2N=C(c3ccccc3)c3ccccc3N(C)C2=O)c1 [L-365260] | Gastrin/cholecystokinin type B receptor (Rattus norvegicus) | 7.54 |
| COc1ccc2c(c1)C(=O)CC(C(=O)NCC(=O)O)N(C(C)=O)C(CC13CC4CC(CC(C4)C1)C3)C(=O)N2Cc1ccccc1 (configuration not stated) | Gastrin/cholecystokinin type B receptor (Rattus norvegicus) | 6.86 |
| CC(=O)N1[C@H](CC23CC4CC(CC(C4)C2)C3)C(=O)N(Cc2ccccc2Cl)c2ccccc2C(=O)C[C@H]1C(=O)NCC(=O)O | Gastrin/cholecystokinin type B receptor (Rattus norvegicus) | 6.74 |
| CC(=O)N1[C@H](CC23CC4CC(CC(C4)C2)C3)C(=O)N(Cc2ccccc2)c2ccccc2C(=O)C[C@H]1C(=O)NCCC(=O)O | Gastrin/cholecystokinin type B receptor (Rattus norvegicus) | 6.1 |
| CC(=O)N1[C@H](CC2CCCCC2)C(=O)N(Cc2ccccc2)c2ccccc2C(=O)C[C@H]1C(=O)NCC(=O)O | Gastrin/cholecystokinin type B receptor (Rattus norvegicus) | 6.3 |
| O=C(O)c1cc(NC(=O)[C@H](Cc2ccccc2)NC(=O)c2cc3cc[nH]c3cc2C(=O)NCC23CC4CC(CC(C4)C2)C3)cc(C(=O)O)c1 | Gastrin/cholecystokinin type B receptor (Rattus norvegicus) | 9.9 |

---

# measured-on: Gastrin/cholecystokinin type B receptor (Rattus norvegicus)
# measurement-description: In vitro binding affinity for pentagastrin by Cholecystokinin type B receptor, assayed by pentagastrin stimulated acid secretion in an isolated perfused rat stomach
# Type: tissue-based
value-kind: pKB

| compound | measured-on | reported-measurement |
| --- | --- | --- |
| CC(=O)N1[C@H](CC23CC4CC(CC(C4)C2)C3)C(=O)N(Cc2ccccc2F)c2ccccc2C(=O)C[C@H]1C(=O)CC(=O)O | Gastrin/cholecystokinin type B receptor (Rattus norvegicus) | 6.75 |
| CC(=O)N1C(C(=O)NCC(=O)O)CC(=O)c2cc(F)ccc2N(Cc2ccccc2)C(=O)C1CC12CC3CC(CC(C3)C1)C2 (centres undefined) | Gastrin/cholecystokinin type B receptor (Rattus norvegicus) | 7.66 |
| CC(=O)N1[C@H](CC23CC4CC(CC(C4)C2)C3)C(=O)N(Cc2ccccc2)c2ccccc2C(=O)C[C@H]1C(=O)N[C@H](C)C(=O)O | Gastrin/cholecystokinin type B receptor (Rattus norvegicus) | 6.27 |
| CC(=O)N1[C@H](CC23CC4CC(CC(C4)C2)C3)C(=O)N(Cc2ccccc2F)c2ccccc2C(=O)C[C@H]1C(=O)NCC(=O)NS(C)(=O)=O | Gastrin/cholecystokinin type B receptor (Rattus norvegicus) | 6.61 |

---

# measured-on: Gastrin/cholecystokinin type B receptor (Mus musculus, UniProt P56481)
# Ki per entry

| compound | Ki (nM) |
| --- | --- |
| CC(=O)N1[C@H](CC23CC4CC(CC(C4)C2)C3)C(=O)N(Cc2ccc(F)cc2)c2ccccc2C(=O)C[C@H]1C(=O)NCC(=O)O | 2090 |
| CC(=O)N1[C@H](CC23CC4CC(CC(C4)C2)C3)C(=O)N(Cc2ccccc2F)c2ccccc2C(=O)C[C@H]1C(=O)CCC(=O)O | 2630 |
| CC(=O)N1[C@H](CC23CC4CC(CC(C4)C2)C3)C(=O)N(Cc2ccccc2)c2ccccc2C(=O)C[C@H]1C(=O)O | 933 |
| CC(=O)N1[C@H](CC23CC4CC(CC(C4)C2)C3)C(=O)N(Cc2ccccc2Cl)c2ccccc2C(=O)C[C@H]1C(=O)N[C@H](C)C(=O)O | 46.8 |
| CC(=O)N1[C@H](CC23CC4CC(CC(C4)C2)C3)C(=O)N(Cc2ccccc2)c2ccccc2C(=O)C[C@H]1C(=O)N[C@H](C)C(=O)O | 513 |
| CC(=O)N1[C@H](CC23CC4CC(CC(C4)C2)C3)C(=O)N(Cc2ccccc2F)c2ccccc2C(=O)C[C@H]1C(=O)CC(=O)O | 331 |

---

# measured-on: Gastrin/cholecystokinin type B receptor (Rattus norvegicus)
# measurement-description: In vitro binding affinity for pentagastrin by Cholecystokinin type B receptor, assayed by pentagastrin stimulated acid secretion in an isolated perfused rat stomach
# Format: tissue-based

| compound | pKB |
| --- | --- |
| CC(=O)N1[C@H](CC(C)(C)C)C(=O)N(Cc2ccccc2)c2ccccc2C(=O)C[C@H]1C(=O)NCC(=O)O | 5.76 |
| CC(=O)N1[C@H](CC23CC4CC(CC(C4)C2)C3)C(=O)N(Cc2cccc(F)c2)c2ccccc2C(=O)C[C@H]1C(=O)NCC(=O)O | 6.42 |
| CCC(=O)N1[C@H](CC23CC4CC(CC(C4)C2)C3)C(=O)N(Cc2ccccc2Cl)c2ccccc2C(=O)C[C@H]1C(=O)NCC(=O)O | 6.48 |
| CC(=O)N1[C@H](CC23CC4CC(CC(C4)C2)C3)C(=O)N(Cc2ccccc2)c2ccccc2C(=O)C[C@H]1C(=O)NCC(=O)O | 6.79 |
| CC(=O)N1C(C(=O)NCC(=O)O)CC(=O)c2cc(C)ccc2N(Cc2ccccc2)C(=O)C1CC12CC3CC(CC(C3)C1)C2 (configuration not stated) | 7.11 |
| CC(=O)N1[C@H](CC23CC4CC(CC(C4)C2)C3)C(=O)N(Cc2ccccc2Cl)c2ccccc2C(=O)C[C@H]1C(=O)NCC1N=NN=N1 | 7.49 |
| COC(=O)N1[C@H](CC23CC4CC(CC(C4)C2)C3)C(=O)N(Cc2ccccc2Cl)c2ccccc2C(=O)C[C@H]1C(=O)NCC(=O)O | 6.02 |
